Biological target: UniProt O94804
Sequence (O94804 whole entry, looked up): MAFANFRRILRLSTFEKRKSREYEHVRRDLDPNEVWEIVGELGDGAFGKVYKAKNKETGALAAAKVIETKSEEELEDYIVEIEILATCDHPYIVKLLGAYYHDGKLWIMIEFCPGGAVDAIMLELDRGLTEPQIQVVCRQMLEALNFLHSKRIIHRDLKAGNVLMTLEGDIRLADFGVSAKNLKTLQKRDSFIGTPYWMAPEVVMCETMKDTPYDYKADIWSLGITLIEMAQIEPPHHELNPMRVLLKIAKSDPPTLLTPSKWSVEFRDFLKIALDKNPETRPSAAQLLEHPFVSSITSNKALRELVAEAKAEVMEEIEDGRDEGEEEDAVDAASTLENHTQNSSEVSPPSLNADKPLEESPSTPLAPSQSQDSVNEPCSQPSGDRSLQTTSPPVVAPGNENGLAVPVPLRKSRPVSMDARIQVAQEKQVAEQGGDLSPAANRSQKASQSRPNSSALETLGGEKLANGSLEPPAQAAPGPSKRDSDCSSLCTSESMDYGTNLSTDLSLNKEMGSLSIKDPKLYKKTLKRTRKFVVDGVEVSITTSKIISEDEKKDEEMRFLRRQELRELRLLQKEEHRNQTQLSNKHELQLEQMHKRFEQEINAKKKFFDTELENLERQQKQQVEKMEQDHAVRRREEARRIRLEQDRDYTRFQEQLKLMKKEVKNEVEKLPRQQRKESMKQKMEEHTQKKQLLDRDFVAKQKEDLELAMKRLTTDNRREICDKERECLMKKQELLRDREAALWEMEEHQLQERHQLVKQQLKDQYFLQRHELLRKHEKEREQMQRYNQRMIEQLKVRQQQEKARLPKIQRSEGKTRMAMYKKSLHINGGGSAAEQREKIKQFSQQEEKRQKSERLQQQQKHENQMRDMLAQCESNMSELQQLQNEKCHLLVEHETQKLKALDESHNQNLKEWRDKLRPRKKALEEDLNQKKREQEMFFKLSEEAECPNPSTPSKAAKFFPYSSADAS
Test: radiometric filter-binding kinase assay, Kinase HotSpot
Conditions: compound 0.5 µM; ATP 10 µM
Consider the following compounds; for each one, report its residual activity.
Give bare numbers, in %.

Examples with answers:
1) Cn1cnc2cc3c(Nc4cccc(Br)c4)ncnc3cc21; 35.8
2) COc1cc2ncnc(N3CCN(C(=O)Nc4ccc(Oc5ccccc5)cc4)CC3)c2cc1OC; 97.9

Would you mind giving residual activity for every compound in the list below?
1. Nc1nnc2[nH]c3ccccc3nc1-2
2. Cn1nc2c3c(cccc31)C(=O)c1ccccc1-2
3. COc1ccc(OC)c2c(=S)c3ccccc3[nH]c12
4. O=C1Nc2ccccc2/C1=C1\Nc2ccccc2\C1=N/O

Return:
[94.6, 94.5, 93.6, 74]

// each listed compound needs a value for residual activity
1. CC(C)c1nn(-c2c(Cl)cccc2Cl)c2nc(Cc3ccc(OCCO)cc3)nc(O)c12
2. CC(C)[C@H](CO)Nc1nc(Nc2cc(N)cc(Cl)c2)c2ncn(C(C)C)c2n1
3. COc1ccc(CNC(=O)Nc2ncc([N+](=O)[O-])s2)cc1
4. O=C1NC(=O)C(c2cn(CCCO)c3ncccc23)=C1c1cnccn1
5. CC(=O)O/N=C1\C(=C2\C(=O)Nc3cc(Br)ccc32)Nc2ccccc21
6. Nc1nccc(-c2c(-c3ccc(F)cc3)ncn2C2CCNCC2)n1
7. COc1cc2ncc(-c3ccccc3)nc2cc1OC

Return:
96.6
55.6
94.3
104
99.3
90.3
89.6

Quick one: give me residual activity for each item below, same order please.
1. CCn1cnc2c(Nc3cccc(Cl)c3)nc(N[C@@H]3CCCC[C@@H]3N)nc21
2. Cc1nc2cc3nc(-c4cccs4)cnc3cc2n1C
3. Cn1sc(=O)n(Cc2ccccc2)c1=O
4. O=C(O)/C=C/c1cc(Br)c(Br)c(Br)c1Br

Return:
[75.1, 94.7, 98.1, 85.8]

meta.source: the kinase profiling compilation of Christmann-Franck et al. (2016)
